- measured-on: N-terminal Xaa-Pro-Lys N-methyltransferase 1 (Homo sapiens) (UniProt Q9BV86)
- Sequence (Q9BV86 whole entry, looked up): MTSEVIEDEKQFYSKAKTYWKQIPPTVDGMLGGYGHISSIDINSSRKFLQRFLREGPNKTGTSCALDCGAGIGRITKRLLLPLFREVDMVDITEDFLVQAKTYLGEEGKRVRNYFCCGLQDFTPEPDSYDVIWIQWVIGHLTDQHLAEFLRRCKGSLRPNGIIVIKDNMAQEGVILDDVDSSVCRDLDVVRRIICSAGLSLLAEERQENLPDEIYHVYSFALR
- assay-summary: qHTS Assay for Inhibitors of N-terminal methyltransferase 1 (NTMT1): MTaseGlo Assay Confirmatory Screen, Round 1
- condition-context: Recombinant NTMT1, MTase-Glo SAH luminescence; series mostly up to 57.1 µM
- Source text: Assay Submitter (PI): Rong Huang Ph.D, Purdue University, West Lafayette, IN 47907 The N-terminal methytransferase 1 is the first methyltransferase that methylates protein alpha-N-amines and plays an important role in regulating cell mitosis, chromatin interactions and DNA repair. […] To address this unmet need, a panel of assay is created and established to enable quantitative high-throughput screening (qHTS) for novel, potent, and selective small molecule NTMT1 inhibitors. […]
Inconclusive results are not listed. Active and inactive are the calls of the source. Calls come from the whole dose curve; as a rule, active = well fitted inhibition curve with a large enough effect; inconclusive = small, poorly fitted or top-dose-only effect; inactive = no such curve, though single readings can be large or run the other way.
Log the outcome using a class from active, inactive

## Input Assay outcome for COc1cc2nc(N3CCOCC3)nc(NC3CC3)c2cc1OC : what was it?
## Output inactive

## Input Please do the same for Nc1ncnc2c1ncn2[C@@H]1O[C@H](CO)C[C@@H]1O as well.
## Output inactive

## Input Please do the same for COc1cc2c(NC3CCN(C)CC3)nc(N3CCCN(C)CC3)nc2cc1OCCCN(C)C as well.
## Output inactive

## Input Please do the same for Nc1ncnc2c1[nH]c(=O)n2C1OC(CO)C(O)C1O (stereo unspecified) as well.
## Output inactive

## Input Please do the same for Nc1ccnc2c1ncn2[C@@H]1O[C@H](CO)[C@@H](O)[C@H]1O as well.
## Output active

## Input Please do the same for COc1cc2nc(N3CCCCC3)nc(NC3CCN(C)CC3)c2cc1OC as well.
## Output inactive

## Input Please do the same for Nc1nc(Cl)nc2c1ncn2[C@@H]1O[C@H](CO)[C@@H](O)[C@H]1O as well.
## Output inactive

## Input Please do the same for OC[C@H]1O[C@@H](n2cnc3c(Nc4ccccc4)ncnc32)[C@H](O)[C@@H]1O as well.
## Output inactive

## Input Please do the same for CSCC1OC(n2cnc3c(N)ncnc32)C(O)C1O (stereo unspecified) as well.
## Output inactive

## Input Please do the same for Nc1ncnc2c1ncn2C1OC(COP(=O)(O)O)C(O)C1O (stereo unspecified) as well.
## Output inactive

## Input Please do the same for CNC(=O)[C@H]1O[C@@H](n2cnc3c(NCc4ccc(N)cc4)ncnc32)[C@H](O)[C@@H]1O as well.
## Output inactive

## Input Please do the same for COc1cc2nc(N3CCCN(C)CC3)nc(NC3CC3)c2cc1OC as well.
## Output inactive

## Input Please do the same for COc1cc2c(NC3CCN(CC4CCCCC4)CC3)nc(N3CCCCC3)nc2cc1OCCCN1CCCCC1 as well.
## Output inactive

## Input Please do the same for O=c1[nH]cnc2c1ncn2C1O[C@H](CO)[C@@H](O)[C@H]1O (stereo partly specified) as well.
## Output inactive

## Input Please do the same for Nc1[nH]c(=O)nc2c1ncn2C1OC(CO)C(O)C1O (stereo unspecified) as well.
## Output inactive

## Input Please do the same for OC[C@H]1O[C@H](n2cnc3c(NC4CCCC4)nc(Cl)nc32)[C@@H](O)[C@@H]1O as well.
## Output inactive

## Input Please do the same for COc1cc2nc(N3CCCN(C)CC3)nc(N3CCN(C)CC3)c2cc1OC as well.
## Output inactive

## Input Please do the same for COc1cc2nc(N3CCN(C)CC3)nc(NC3CCCC3)c2cc1OC as well.
## Output inactive

## Input Please do the same for COc1cc2c(NC3CCN(C(C)C)CC3)nc(N3CCC(N4CCCC4)CC3)nc2cc1OCCCN1CCCCC1 as well.
## Output inactive

## Input Please do the same for Nc1ncnc2c1ncn2C1C[C@H](O)[C@@H](CO)O1 (stereo partly specified) as well.
## Output inactive

## Input Please do the same for CSc1nc(N)c2ncn([C@@H]3O[C@H](COP(=O)(O)OP(=O)(O)O)C(O)[C@H]3O)c2n1 (stereo partly specified) as well.
## Output inactive

Origin of the recorded values: PubChem BioAssay AID1347145
